Biological target: 5-HT1A receptor (Rattus norvegicus, UniProt P19327)
Sequence (P19327 whole entry): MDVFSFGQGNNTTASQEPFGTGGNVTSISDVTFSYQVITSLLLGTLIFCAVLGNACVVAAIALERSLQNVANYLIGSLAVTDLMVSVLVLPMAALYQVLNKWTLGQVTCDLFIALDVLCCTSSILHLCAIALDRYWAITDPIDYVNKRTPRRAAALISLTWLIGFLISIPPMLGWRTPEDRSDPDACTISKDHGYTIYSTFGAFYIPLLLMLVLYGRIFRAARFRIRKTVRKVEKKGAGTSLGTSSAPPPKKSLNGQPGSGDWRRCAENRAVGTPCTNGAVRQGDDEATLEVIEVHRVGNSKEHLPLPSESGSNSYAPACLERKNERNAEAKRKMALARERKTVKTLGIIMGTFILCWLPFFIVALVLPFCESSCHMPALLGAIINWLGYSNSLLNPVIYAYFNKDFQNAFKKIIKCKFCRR
Assay: Inhibition of 3H-8-OH-DPAT binding to serotonin 5-HT1A receptors in rat brain in vitro
Set-up: 5-HT1A receptors in membranes from rat brain minus cerebellum; from tissue; host or cells: rat brain minus cerebellum, membranes
Settings: 3H-8-OH-DPAT 1 nM; membranes from rat brain minus cerebellum; read-out: IC50, 3H 8-OH-DPAT binding
Each entry falls in a class defined on IC50; the bands are category 1 = under 0.01 µM, category 2 = from 0.01 µM up to 0.05 µM, category 3 = 0.05 µM and over

chemSmiles | assayedSystem | groupLabel
O=c1n(CCN2CCN(c3cccc4c3OCCO4)CC2)ccn1-c1ccccc1 | 5-HT1A receptor (Rattus norvegicus, UniProt P19327) | category 2
O=C1N(CCCCN2CCN(c3cc(Cl)cc4cc(-c5ccccc5)oc34)CC2)CCN1C1CCCCC1 | 5-HT1A receptor (Rattus norvegicus, UniProt P19327) | category 3

Consider now this further molecule.
Hey, which category is `O=C1N(CCN2CCN(c3cccc4c3ccn4-c3ccc(F)cc3)CC2)CCN1C1CCCC1` in, do you know?
category 3
